Listing: half-life of selected compounds
- Measurement Description: Pharmacokinetics in ICR mice after intravenous and intragastric administration
- Type: in vivo
- Study Conditions: male, ICR, mouse, plasma, iv, 2 mg/kg, ICR mice, IV 2 mg/kg, individual animals 301-303; read-out: t1/2 (converted)
// note: answer is a bare numeric in h

Below, each entry is followed by its recorded half-life result.
| Compound | Attribute Measured | Endpoint Value |
| --- | --- | --- |
| COc1nc(C2CC2)ncc1-c1nc2c(n1C(C)C)[C@@]1(C(=O)Nc3cc(Cl)ccc31)N(c1cc(Cl)cnc1C)C2=O [Example S-159] | half-life | 1.22 |
| COc1nc(N(C)C)ncc1-c1nc2c(n1C(C)C)[C@@]1(C(=O)Nc3cc(Cl)ccc31)N(c1cc(Cl)cnc1C)C2=O [Example S-135] | half-life | 1.65 |
| COc1cc(OC(C)C)ncc1-c1nc2c(n1C(C)C)[C@@]1(C(=O)Nc3cc(Cl)ccc31)N(c1cc(Cl)cnc1C)C2=O [Example S-137] | half-life | 1.68 |
| COc1cc(C(F)(F)F)ncc1-c1nc2c(n1C(C)C)[C@@]1(C(=O)Nc3cc(Cl)ccc31)N(c1cc(Cl)ccc1C)C2=O [Example S-138] | half-life | 4.03 |

Next up:
Input: Which half-life reading was recorded for the compound CCOc1ncc(-c2nc3c(n2C(C)C)[C@@]2(C(=O)Nc4cc(Cl)ccc42)N(c2cc(Cl)cnc2C)C3=O)c(OC)n1 [Example S-134] ?
Output: 0.93

* * *

These molecules were tested on UniProt Q00987; IC50 is the recorded read-out.
Sequence (Q00987 whole entry): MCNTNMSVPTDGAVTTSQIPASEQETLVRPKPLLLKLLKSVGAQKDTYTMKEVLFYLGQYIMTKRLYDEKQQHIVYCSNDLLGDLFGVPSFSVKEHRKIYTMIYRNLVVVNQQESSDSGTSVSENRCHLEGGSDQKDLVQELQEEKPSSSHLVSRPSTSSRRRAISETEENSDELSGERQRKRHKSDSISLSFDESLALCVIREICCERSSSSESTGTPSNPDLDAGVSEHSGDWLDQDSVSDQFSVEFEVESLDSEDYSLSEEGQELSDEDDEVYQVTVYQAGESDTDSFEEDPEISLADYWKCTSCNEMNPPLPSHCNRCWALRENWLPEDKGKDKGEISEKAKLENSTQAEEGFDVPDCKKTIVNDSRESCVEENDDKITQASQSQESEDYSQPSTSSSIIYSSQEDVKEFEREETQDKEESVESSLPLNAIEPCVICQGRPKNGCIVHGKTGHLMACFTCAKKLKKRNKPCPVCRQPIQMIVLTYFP
Your answer is read as nM, so omit the unit and give the number.

See these solved cases before continuing.
| Molecule | IC50, nM |
| --- | --- |
| COc1ncc(-c2nc3c(n2C(C)C)C2(C(=O)Nc4cc(Cl)ccc42)N(c2cc(Cl)ccc2C(C)C)C3=O)c(OC)n1 (stereo not drawn) | 11.2 |
| COc1cc(OCC(F)F)ncc1-c1nc2c(n1C(C)C)[C@@]1(C(=O)Nc3cc(Cl)ccc31)N(c1cc(Cl)ccc1C)C2=O | 0.49 |

Continue with the next molecule.
Input: Find the measured IC50: item `CCOc1ncc(-c2nc3c(n2C(C)C)[C@@]2(C(=O)Nc4cc(Cl)ccc42)N(c2cc(Cl)ccc2F)C3=O)c(OC)n1` , target or system UniProt Q00987.
Output: 3.94

* * *

# Tmax per entry
- Measurement Description: Pharmacokinetics in ICR mice after intravenous and intragastric administration
- Format: in vivo
- Study Conditions: ICR mice, PO 5 mg/kg, individual animal; 5 mg/kg
The answer is to be given in h; state only the numeric part.

Input: May I ask what Tmax has been recorded for COc1nc(C2CC2)ncc1-c1nc2c(n1C(C)C)[C@@]1(C(=O)Nc3cc(Cl)ccc31)N(c1cc(Cl)ccc1C)C2=O [Example S-121] ?
Output: 4.00

Input: Suppose we examine the compound CCOc1cc(OC)c(-c2nc3c(n2C(C)C)[C@@]2(C(=O)Nc4cc(Cl)ccc42)N(c2cc(Cl)cnc2C)C3=O)cn1 [Example S-96] ; what Tmax value has been reported?
Output: 0.50

Input: Given the entry CCOc1cc(OC)c(-c2nc3c(n2C(C)C)[C@@]2(C(=O)Nc4cc(Cl)ccc42)N(c2cc(Cl)ccc2F)C3=O)cn1 [Example S-98] , report its measured Tmax.
Output: 2.00

Hello, the source for this data is patent US11339171B2, in case you need it.
